Reference for the values: PubChem BioAssay AID1851

# TARGET OF ASSAY: Cytochrome P450 2C19 (Homo sapiens)
# TEST: Cytochrome panel assay with activity outcomes
# TEST CONTEXT: recombinant CYP, pro-luciferin dealkylation, luminescence, p450-cyp2c19; series mostly up to 57.1 µM
The whole screen tested about 16,000 compounds, of which about 5,800 (36%) were called active. About 23% were inconclusive and are not listed. Calls follow the shape of the dose curve; as a rule, active = well fitted curve in the direction sought with a large enough effect; inconclusive = small, poorly fitted or top-dose-only effect, or effect the other way; inactive = no such curve, though single readings can be large or run the other way. This is one part of the list.
Would you mind answering with one of these outcomes? 1 for active, -1 for inactive

Completed entries (count: 8):
>>> class_assignment("COc1ccccc1CCn1c(=O)c(-c2ccccc2)nc2cncnc21")
1
>>> class_assignment("N#Cc1cccc(NC(=O)N2CC3(CCN(C(=O)c4cc(C(F)(F)F)cc(C(F)(F)F)c4)CC3)C2)c1")
1
>>> class_assignment("Cc1ccccc1C(=O)N/N=C/c1ccncc1")
1
>>> class_assignment("COc1ccccc1CCn1c(=O)c(-c2cccc(Cl)c2)nc2cncnc21")
1
>>> class_assignment("Cc1ccc(C(=O)N/C(=C\\c2ccc([N+](=O)[O-])cc2)C(=O)NCCc2ccccc2)cc1")
1
>>> class_assignment("COc1ccccc1CCn1c(=O)c(-c2ccc(Cl)cc2)nc2cncnc21")
1
>>> class_assignment("COc1cccc(Nc2ncc3nc(-c4cccs4)c(=O)n(CCC#N)c3n2)c1")
-1
>>> class_assignment("COc1cccc(-c2[nH]nc3c2C(c2ccc(C)o2)C(C#N)=C(N)O3)c1 (configuration not stated)")
1

Returns: the outcome recorded for NC(=O)C(=O)O in this assay.
-1

Which result was noted for this molecule in the test: O=C(c1ccc2nc3ccc(Cl)cc3c(=O)n2c1)N1CCOCC1
-1

Entry O=C(Nc1ccccc1)[C@@]12C[C@@H]1/C(=N/O)c1ccccc1O2 : call = ?
1

Field: outcome | Entry: COCCn1c(=O)c(-c2cccc(C#N)c2)nc2cnc(N3CCN(C)CC3)nc21
-1

Answer briefly: the call reported for Clc1ccc(-c2cc3ccccc3[nH]2)cc1 in this assay.
1

Tell me the assay call for Cc1ccccc1OCC(=O)OC1CCN(C)CC1 please.
-1

What did the test return for NC(=O)C1(N2CCCCC2)CCN(C(=O)c2cccn3c(=O)c4cc(Cl)ccc4nc23)CC1 ?
1

Can you look up the reported call for COc1cccc(-c2[nH]nc3c2C(c2ccsc2)C(C#N)=C(N)O3)c1 (configuration not stated) for me?
1

Lab log entry: Cn1c(=O)c(-c2ccc(Cl)cc2)nc2cncnc21 — outcome as called in the assay?
-1

How did this test come out for C=CCn1c(SC(C)C(=O)NCc2ccc3c(c2)OCO3)nc2scc(-c3ccccc3)c2c1=O (configuration not stated) ?
1

Per the assay record, what outcome was assigned to COc1ccc2c(c1)CCC1[C@@H]2CCC2(C)[C@@H](NCCCCCCN3C(=O)C=CC3=O)CC[C@@H]12 (some centres not stated) ?
-1

---

# TARGET OF ASSAY: Cytochrome P450 2C19 (Homo sapiens)
# TEST: Cytochrome panel assay with activity outcomes
# TEST CONTEXT: recombinant CYP, pro-luciferin dealkylation, luminescence, p450-cyp2c19; series mostly up to 57.1 µM
The whole screen tested about 16,000 compounds, of which about 5,800 (36%) were called active. Inconclusive results (about 23%) are left out. Calls come from the whole dose curve; as a rule, active = well fitted curve in the direction sought with a large enough effect; inconclusive = small, poorly fitted or top-dose-only effect, or effect the other way; inactive = no such curve, though single readings can be large or run the other way. The list shows a part of the results.
Response enum: y = active, n = inactive

Consider the following illustrative entries.
>>> class_assignment("COc1c(/C=N/Nc2ccc([N+](=O)[O-])cc2[N+](=O)[O-])c(C)nn1-c1ccccc1")
"n"
>>> class_assignment("CCOC(=O)C1=C(CSc2nc(-c3ccccc3)ccc2C#N)OC(N)=C(C#N)C1c1ccc(OC)cc1 (stereo not given)")
"y"
>>> class_assignment("CC(C)CCNC1=NCCCCC1")
"n"
>>> class_assignment("O=[N+]([O-])c1ccccc1N/N=C/c1c[nH]c2ccccc12")
"y"

Now let's try a different one.
Lab log entry: CC(C)(C)c1onc(OCP(=O)(O)O)c1C[C@@H](N)C(=O)O — outcome as called in the assay?
n
